# TARGET OF ASSAY: T1, Canine IL-31RA ECD-10His (canine)
# T1 construct: made in HEK-293 or CHO cells and coated on the ELISA plates; also called canine IL-31 receptor alpha extracellular domain HIS-tagged protein; cIL-31RA
# T1 chain: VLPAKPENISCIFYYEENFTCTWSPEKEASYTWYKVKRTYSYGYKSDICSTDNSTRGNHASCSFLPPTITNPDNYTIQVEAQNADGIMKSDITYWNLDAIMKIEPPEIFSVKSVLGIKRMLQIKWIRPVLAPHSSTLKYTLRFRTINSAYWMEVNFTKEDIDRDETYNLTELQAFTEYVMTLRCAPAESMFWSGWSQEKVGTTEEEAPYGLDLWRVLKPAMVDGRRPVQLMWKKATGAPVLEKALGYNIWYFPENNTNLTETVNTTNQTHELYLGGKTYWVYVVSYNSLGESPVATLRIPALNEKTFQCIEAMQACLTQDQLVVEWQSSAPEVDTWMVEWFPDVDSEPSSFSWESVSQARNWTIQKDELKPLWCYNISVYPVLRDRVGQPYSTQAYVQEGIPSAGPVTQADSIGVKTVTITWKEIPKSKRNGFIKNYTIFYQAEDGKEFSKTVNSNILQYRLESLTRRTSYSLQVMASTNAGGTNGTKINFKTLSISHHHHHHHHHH
# ASSAY COMMENT: ELISA, IL-31RA coated
QUANTITY NAME: binding result

binder="47F3 (antibody, V domains shown, Rat monoclonal antibody from a hybridoma; also called rat mAb 47F3) VH: EVQLVESGGGLVQPGRSMKLSCVASGFTFSNYYMAWVRQAPTKGLEWVASISTGGGNTYYRDSVKGRFTISRDNAKSTLYLQMDSLRSEDTATYYCARHGTLYFDYWGQGVMVTVS VL: QFTLTQPKSVSGSLRSTITIPCERSSGDIGNTYVSWYQQHLGRPPINVIYADDQRPSEVSDRFSGSIDSSSNSASLTITNLQMDDEADYFCQSYDSNIDGPVFGGGTKLTVL" reported_result=binds
binder="10A12 (antibody, V domains shown, Rat monoclonal antibody from a hybridoma; also called rat mAb 10A12) VH: EVQLVESGGGLVKPGRSMKLSCAASGFTFSNYYMAWVRQAPTKGLEWVASISTGGGNTYYRDSVKGRFTISRDNAKRTLYLQMDSLRSEDTATYYCGRHGTLYFDYWGQGVMVTVSS VL: QFTLTQPKSVSGSLRSTITIPCERSSGDIGDSYVSWYQQHLGRPPINVIYVDDQRPSEVSDRFSGSIDSSSNSASLTITDLQMDDEADYFCQSYDSNIDGPVFGGGTKLTVL" reported_result=binds
binder="51G4 (antibody, V domains shown, Rat monoclonal antibody from a hybridoma; also called rat mAb 51G4) VH: EVQLVESGGGLVQPGRSMKLSCAALGFTFSNYYMAWVRQAPTKGLEWVASISTGGGNTYYRDSVKGRFTISRDNAKNTLYLQMDSLRSEDTATYYCARHGTIAAMDYWGQGVMVTVSS VL: QFTLTQPKSVSGSLRSTITIPCERNNGDIGDSYVSWYQQHLGRPPIIVIYADDQRPSEVSDRFSGSIDSSSNSASLTITNLQMDDEADYFCQSYDSNIDGPVFGGGTKLTVL" reported_result=binds
